Target: prefusion-stabilized Nipah virus fusion (F) glycoprotein, construct NiVF_prefusion (Nipah virus, Malaysian strain, stabilised)
result type: binding result

1) 201805_NiV_PL3_G2 (antibody, V domains shown) VH: QIQLVQSGPELKKPGETVKISCTTSGFIFRNYGVNWVKRAPGKGLKWMGWIDAYTGEPAYADDFKGRFAFSLEMSANTAYLQITNLKNEDMATYFCARQGWGEAMDYWGQGTSVTVSS VL: DVLMTQSPLSLPVSSGDQASISCRSSQTFVHSNGNTYLEWYLQKPGQSPKLLIYKVSNRFSGVPDRFIGSGSGTDFTLKISRVEADDLGVYYCFQGSHVPWAFGGGTKLEIK: binds
2) 201805_NiV_PL4_E1 (antibody, V domains shown) VH: EVQLEESGGGLVPGGSLKLSCAASGFTFSDYYMYWVRQTPEKRLEWVATISDGGSYTYYPDSVKGRFTISRDNAKNNLYLQMSSLKSEDTAMYYCAREKPDRGHYYAMDYWGQGTSVTVLQ VL: IQMTQSSSSFSVSLGDRVTITCKASEDIYNRLAWYQQKPGNAPRLLISGATSLETGVPSRFSGSGSGKDYTLSITSLQTEDVATYYCQQYWSTPYTFGGGTKLKN: binds
3) 201805_NiV_PL4_C7 (antibody, V domains shown) VH: FEESGGLVQPGGSMKISCVASGFTFSNYWMNWVRQSPEKGLEWIAQIRLKSDNYATHYAESVKGRFTISRDDSKSSVYLQMNNLRAEDSGIYYCTGILDYWGQGTSVTVSQ VL: YIQMTQSPSSMSVSLGDTVSITCHASQGISSNIGWLQQKPGKSFKVLIYHGTNLEDGVPSRFSGSGSGADYSLTISSLESEDFADYYCVQYAQFPYTFGGGPNDKT: binds
